For reference, IC50 measured on Protein kinase C zeta type (Homo sapiens, UniProt Q05513):

chemical_smiles=Cn1cc(C2=C(c3cn(C4CCN(C(=O)OC(C)(C)C)CC4)c4ccccc34)C(=O)NC2=O)c2ccccc21 experimental_readout=IC50 result="> 100 µM"

Request: Any idea what IC50 was measured for `Cn1cc(C2=C(c3cn(C4CCN(Cc5ccccc5)CC4)c4ccccc34)C(=O)NC2=O)c2ccccc21` ?
Result: > 100 µM

---

Target: Protein kinase C beta type (Homo sapiens, UniProt P05771)
Sequence (P05771 whole entry): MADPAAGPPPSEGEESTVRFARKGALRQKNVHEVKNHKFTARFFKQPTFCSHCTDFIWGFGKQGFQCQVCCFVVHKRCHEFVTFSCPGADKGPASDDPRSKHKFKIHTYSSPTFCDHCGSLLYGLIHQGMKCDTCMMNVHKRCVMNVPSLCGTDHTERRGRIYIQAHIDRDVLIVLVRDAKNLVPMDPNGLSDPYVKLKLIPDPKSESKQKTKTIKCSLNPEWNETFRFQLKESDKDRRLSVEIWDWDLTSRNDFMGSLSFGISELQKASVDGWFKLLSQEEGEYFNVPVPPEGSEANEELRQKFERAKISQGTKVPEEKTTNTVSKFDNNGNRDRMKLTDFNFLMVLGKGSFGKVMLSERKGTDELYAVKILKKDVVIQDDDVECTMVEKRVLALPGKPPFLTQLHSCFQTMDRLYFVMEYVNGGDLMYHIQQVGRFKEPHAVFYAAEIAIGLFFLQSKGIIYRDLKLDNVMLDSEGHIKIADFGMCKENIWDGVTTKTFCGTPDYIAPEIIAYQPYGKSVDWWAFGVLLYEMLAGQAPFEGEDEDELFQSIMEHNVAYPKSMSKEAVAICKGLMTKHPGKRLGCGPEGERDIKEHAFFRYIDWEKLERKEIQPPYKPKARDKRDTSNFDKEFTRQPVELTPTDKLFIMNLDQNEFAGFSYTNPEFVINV
Assay: Inhibition of Protein kinase C beta 2
experimental_readout: pIC50
To interpret pIC50, take it as minus log10 of a concentration measured in moles per litre.

molecule="Cn1cc(C2=C(c3cn(C4CCN(Cc5ccccc5)C4)c4ccccc34)C(=O)NC2=O)c2ccccc21 (configuration not stated)" result=7.62

Pending molecule:
Request: Any idea what pIC50 was measured for `Cn1cc(C2=C(c3cn(C4CCN(C(=O)OC(C)(C)C)CC4)c4ccccc34)C(=O)NC2=O)c2ccccc21` ?
Result: 7.10
